# study target: BCL-XL (Homo sapiens, UniProt Q07817)
# Construct: endogenous in cells; host or cells: MOLT-4
# Sequence (Q07817 whole entry): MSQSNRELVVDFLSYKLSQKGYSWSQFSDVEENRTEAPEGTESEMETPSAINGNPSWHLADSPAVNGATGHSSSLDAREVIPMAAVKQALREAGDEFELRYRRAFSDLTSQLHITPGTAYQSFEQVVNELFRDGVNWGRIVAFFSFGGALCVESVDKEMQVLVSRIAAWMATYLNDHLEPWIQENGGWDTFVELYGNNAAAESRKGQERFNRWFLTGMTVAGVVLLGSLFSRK
# assay notes: BCL-XL degradation assay, western blot in MOLT-4 cells, 16 h
# Format: cell-based
# recorded conditions: western blot, MOLT-4 cells, 16 h; read-out: Bcl-xL WB in MOLT-4 degradation 16 h: Average Dmax %
measure name: Dmax

Asked: # get_value(readout='Dmax', item= Cc1ncsc1-c1ccc([C@H](C)NC(=O)[C@@H]2C[C@@H](O)CN2C(=O)[C@@H](NC(=O)CCCCCS(=O)(=O)NC(=O)c2cccc(N3CCc4cccc(C(=O)Nc5nc6ccccc6s5)c4C3)n2)C(C)(C)C)cc1 )
Given back: < 50%

Asked: Okay, and Cc1ncsc1-c1ccc([C@H](C)NC(=O)[C@@H]2C[C@@H](O)CN2C(=O)[C@@H](NC(=O)c2ccc(CCS(=O)(=O)NC(=O)c3nc(N4CCc5cccc(C(=O)Nc6nc7ccccc7s6)c5C4)ccc3-c3cnn(CC4CCCCC4)c3C)cc2)C(C)(C)C)cc1 ?
Given back: > 75%

Asked: Okay, and Cc1ncsc1-c1ccc(CNC(=O)[C@@H]2C[C@@H](O)CN2C(=O)[C@@H](NC(=O)C2(F)CC2)C(C)(C)C)c(OCC(=O)N2CCN(CCCC3(Cn4ncc(-c5ccc(N6CCc7cccc(C(=O)Nc8nc9ccccc9s8)c7C6)nc5C(=O)O)c4C)CCCCC3)CC2)c1 ?
Given back: 50 to 75%

Asked: Okay, and C#Cc1ccc([C@H](C)NC(=O)[C@@H]2C[C@@H](O)CN2C(=O)[C@@H](NC(=O)N2CCC3(CCC(C(=O)N4CCN(CC[C@H](CSc5ccccc5)Nc5ccc(S(=O)(=O)NC(=O)c6ccc(N7CCN(CC8=C(c9ccc(Cl)cc9)CCC(C)(C)C8)CC7)cc6)cc5S(=O)(=O)C(F)(F)F)CC4)CC3)CC2)C(C)(C)C)cc1 ?
Given back: < 50%

Asked: Okay, and Cc1ncsc1-c1ccc([C@H](C)NC(=O)[C@@H]2C[C@@H](O)CN2C(=O)[C@@H](NC(=O)N2CC3(CC(N4CCN(C(=O)c5nc(N6CCc7cccc(C(=O)Nc8nc9ccccc9s8)c7C6)ccc5-c5cnn(CC6CCCCC6)c5C)CC4)C3)C2)C(C)(C)C)cc1 ?
Given back: 50 to 75%

Asked: Okay, and Cc1ncsc1-c1ccc(CNC(=O)[C@@H]2C[C@@H](O)CN2C(=O)[C@@H](NC(=O)C2(F)CC2)C(C)(C)C)c(OCC(=O)N2CCN(CC[C@H](CSc3ccccc3)Nc3ccc(S(=O)(=O)NC(=O)c4ccc(N5CCN(CC6=C(c7ccc(Cl)cc7)CCC(C)(C)C6)CC5)cc4)cc3S(=O)(=O)C(F)(F)F)CC2)c1 ?
Given back: > 75%

====

Provide the reported Dmax of each item.
# study target: BCL-XL (Homo sapiens, UniProt Q07817)
# Construct: endogenous in cells; host or cells: MOLT-4
# assay notes: BCL-XL degradation assay, western blot in MOLT-4 cells, 16 h
# Assay type: cell-based
# recorded conditions: western blot, MOLT-4 cells, 16 h; read-out: Bcl-xL WB in MOLT-4 degradation 16 h: Average Dmax %

Asked: Under BCL-XL (Homo sapiens, UniProt Q07817): Dmax value of C#Cc1ccc(CNC(=O)[C@@H]2C[C@@H](O)CN2C(=O)[C@@H](NC(=O)CCCCS(=O)(=O)NC(=O)c2nc(N(C)c3cc(C)c(Nc4nc5ccccc5s4)nn3)ccc2-c2cnn(CC3CCCCC3)c2C)C(C)(C)C)cc1 [I-345] ?
Given back: > 75%

Asked: Okay, and CC1(C)CCC(c2ccc(Cl)cc2)=C(CN2CCN(c3ccc(C(=O)NS(=O)(=O)c4ccc(N[C@H](CCN5CCN(C(=O)COc6ccccc6CNC(=O)[C@@H]6C[C@@H](O)CN6C(=O)[C@@H](NC(=O)C6(F)CC6)C(C)(C)C)CC5)CSc5ccccc5)c(S(=O)(=O)C(F)(F)F)c4)cc3)CC2)C1 [I-97] ?
Given back: < 50%

Asked: Okay, and Cc1ncsc1-c1ccc(CNC(=O)[C@@H]2C[C@@H](O)CN2C(=O)[C@@H](NC(=O)C2(F)CC2)C(C)(C)C)c(OCCCCCS(=O)(=O)NC(=O)c2nc(N3CCc4cccc(C(=O)Nc5nc6ccccc6s5)c4C3)ccc2-c2cnn(CC3CCCCC3)c2C)c1 [I-177] ?
Given back: > 75%

Asked: Okay, and Cc1ncsc1-c1ccc([C@H](C)NC(=O)[C@@H]2C[C@@H](O)CN2C(=O)[C@@H](NC(=O)CCCS(=O)(=O)NC(=O)c2nc(N3CCc4cccc(C(=O)Nc5nc6ccccc6s5)c4C3)ccc2-c2cnn(CC34CC5CC(CC(C5)C3)C4)c2C)C(C)(C)C)cc1 [I-117] ?
Given back: > 75%
